Experiment: Intramuscular pharmacokinetic study of chiral isomers 1 and 2
Format: in vivo, male Sprague Dawley (SD) rats
Settings: male, Sprague-Dawley, rat, plasma, intramuscular; IM 20 mg/kg, 0.5 h
outcomeMeasure: concentration at 0.5 h

CCOC(=O)[C@H]1N=C1CCc1ccc(OC)cc1 [Chiral isomer (1-1)] = 2150 ng/mL

* * *

Assay: Intramuscular pharmacokinetic study of chiral isomers 1 and 2
Format: in vivo, male Sprague Dawley (SD) rats
Settings: male, Sprague-Dawley, rat, plasma, intramuscular; IM 20 mg/kg, 24 h
Description: In vivo pharmacokinetic study was performed in male Sprague Dawley (SD) rats (n=4). Intramuscular (IM) formulation of compound 1 Chiral 1 and 2 were prepared by individually dissolving accurately weighed quantity of compound 1, chiral isomers 1 and 2 (20 mg) in 1 mL of olive oil followed by vortexing for 2 min and sterilize through syringe filter. […]
outcomeMeasure: concentration at 24 h (ng/mL)

CCOC(=O)[C@H]1N=C1CCc1ccc(OC)cc1 [Chiral isomer (1-1)] = 1930
